Here the recorded TD50 is given for each entry.
System: rodent lifetime carcinogenesis bioassay, tumor incidence TD50
Assay: carcinogenic potency in animals, long-term in vivo studies, CPDB compilation (AID 1745844)
Settings: mouse; strain CD-1 HaM/ICR; females; in feed; site: liver; lesion: several types; types named in the paper; dosed 77 weeks; study length 98 weeks
Calls of active or inactive are those of the source. How the calls were made is not given here.

Compound string	TD50
Nc1ccc(-c2ccc(N)c(N)c2)cc1N	1690 mg/kg/day (inactive)
Cc1cc(C)c(N)cc1C	60.4 mg/kg/day

---

System: rodent lifetime carcinogenesis bioassay, tumor incidence TD50
Assay: carcinogenic potency in animals, long-term in vivo studies, CPDB compilation (AID 1745844)
Conditions: mouse; strain B6C3F1; males; in feed; site: liver; lesion: hepatocellular carcinoma; dosed 104 weeks; study length 104 weeks

Compound	TD50
Nc1nc(N)c2nc(-c3ccccc3)c(N)nc2n1	227 mg/kg/day
CC(C)(CCCOc1ccc(OCCCC(C)(C)C(=O)O)c(-c2ccccc2)c1)C(=O)O	167 mg/kg/day
CC(C)CCCCCCOC(=O)c1ccccc1C(=O)OCCCCCCC(C)C	2920 mg/kg/day
C#CC(C)(C)NC(=O)c1cc(Cl)cc(Cl)c1	140 mg/kg/day
Cc1ncc[nH]1	378 mg/kg/day
C[C@@H]1Cc2c(Cl)cc(C(=O)N[C@@H](Cc3ccccc3)C(=O)O)c(O)c2C(=O)O1	58.7 mg/kg/day
CCCc1c(OCCCCc2nn[nH]n2)ccc(C(C)=O)c1O	426 mg/kg/day
CCCCCCCCS(=O)C(C)Cc1ccc2c(c1)OCO2 (stereo not drawn)	62.2 mg/kg/day
